test system: HEK-293T; experiment: Multiplex assay against HEK293T; type: toxicity, cell-based; settings: human, 24 h, 10 µM, compound concentration 10 uM, replicate 1
Here the recorded Population Apoptotic (%) is given for each entry.
Write it as a number; the unit % goes unstated.

Guide cases for Population Apoptotic (%), answers given:
MOLECULE	TARGET_OF_ASSAY	Population Apoptotic (%)
COc1ccc2c(c1)C(C(=O)N(Cc1ccc(N(C)C)cc1)c1ccc(C(C)C)cc1)CCC2.Cl (stereo not given)	HEK-293T	35
CC1(COc2ccc3c(c2)ncn3-c2ccc3cccc(N4CCC(N)CC4)c3n2)COC1 [CRENOLANIB]	HEK-293T	72
Cc1ccccc1C(=O)Nc1ccc(C(=O)N2CCCC(N(C)C)c3ccccc32)cc1.Cl (stereo not given)	HEK-293T	41

Task item: Recorded Population Apoptotic (%) for O=C(O)Cc1ccccc1Nc1c(Cl)cccc1Cl [DICLOFENAC] with HEK-293T, please?
Reply: 25

Task item: # repeat for CC(=O)NCCc1c(Cc2ccccc2)[nH]c2ccccc12 [LUZINDOLE]
Reply: 40

Task item: Also O=C(NCC(=O)N1CC[C@H](N[C@H]2CC[C@@](O)(c3ccc(-c4ncccn4)cn3)CC2)C1)c1cccc(C(F)(F)F)c1 [PF-4136309] , if possible.
Reply: 35

Task item: Ok, now "CCCn1c(=O)c2[nH]c(C3CCCC3)nc2n(CCC)c1=O"
Reply: 50

Task item: Another molecule to check: CC(C)(C)c1ccc(S(=O)(=O)Nc2ccc(Cl)cc2C(=O)c2cc[n+]([O-])cc2)cc1 [VERCIRNON]
Reply: 22

Task item: Would you kindly repeat that for CSc1ccccc1N1CCN(CCCCCC(=O)NC2CCCc3ccccc32)CC1.Cl (stereo not given) ?
Reply: 75

Task item: Ok, now "Oc1c(CN2CCN(c3ccccn3)CC2)cc(Cl)c2cccnc12"
Reply: 93

---

system: Fibroblast; assay: Multiplex assay against human fibroblast; assay type: toxicity, cell-based; conditions: 48 h, 1 µM, compound concentration 1 uM, replicate 2
TEST_READOUT: Population Pyknosed Nuclei (%)
Please provide the amount together with its unit, number first.

COMPOUND	TARGET_OF_ASSAY	Population Pyknosed Nuclei (%)
Cc1ccc(/C(=C\CN2CCCC2)c2ccccn2)cc1 [TRIPROLIDINE]	Fibroblast	21%
CNC[C@H](O)c1ccc(O)c(O)c1 [EPINEPHRINE]	Fibroblast	10%

// moving on: another record for Population Pyknosed Nuclei (%)
Task item: What does the record list as Population Pyknosed Nuclei (%) for Cc1ccccc1C(=O)Nc1ccc(C(=O)N2CCCC(N(C)C)c3ccccc32)cc1.Cl (stereo not drawn) ?
Reply: 17%

---

system: HEK-293T; test: Multiplex assay against HEK293T; assay type: toxicity, cell-based; settings: human, 12 h, 10 µM, compound concentration 10 uM, replicate 2
// boundary case: Total Cell Count equal to 300 maps to criterion not met; strictly smaller maps to criterion met

Recorded results for 4 compounds are shown here.
COMPOUND	LABEL_VALUE
O=S(=O)(c1ccccc1)c1cnc2c(N3CCNCC3)cccc2c1 [INTEPIRDINE]	criterion not met
c1cc(OCCCN2CCCCC2)ccc1CN1CCCCC1	criterion met
CN1CCN(c2nc3cc(C(F)(F)F)ccc3n3cccc23)CC1.O=C(O)/C=C\C(=O)O.O=C(O)/C=C\C(=O)O	criterion met
CSCC[C@H](NC=O)C(=O)N[C@@H](CC(C)C)C(=O)N[C@@H](Cc1ccccc1)C(=O)O	criterion not met

Task item: Input "O=C(NCCO)c1cccc(-c2cc(Nc3ccc(OC(F)(F)F)cc3)ncn2)c1" ; condition: Total Cell Count strictly below 300. Does it hold?
Reply: criterion not met

Task item: // repeat for Cc1ccc(C(C)(O)c2nc3ccccc3s2)c(C)c1 (configuration not stated) and report
Reply: criterion not met

Task item: Another compound: "C[C@H]1[C@H]2CC[C@H]3[C@@H]4CC=C5C[C@@H](N(C)C)CC[C@]5(C)[C@H]4CC[C@]23CN1C"
Reply: criterion not met

Task item: Now the same for "C[C@@H]1C[C@H]2[C@@H]3CCC4=CC(=O)C=C[C@]4(C)[C@@]3(F)[C@@H](O)C[C@]2(C)[C@@]1(O)C(=O)CO"
Reply: criterion not met

Task item: What about this compound? "Cc1ccc(F)cc1C(=O)Nc1ccc(C(=O)N2Cc3cccn3Cc3ccccc32)c(Cl)c1"
Reply: criterion not met

Task item: Same question, "CC(=O)NCCc1c(Cc2ccccc2)[nH]c2ccccc12" this time
Reply: criterion not met

Task item: Further, for "Cc1ccc(/C(=C\CN2CCCC2)c2ccccn2)cc1" ?
Reply: criterion not met

Task item: Same question, "Oc1c(CN2CCN(c3ccccn3)CC2)cc(Cl)c2cccnc12" this time
Reply: criterion not met
